Tested on: CAL-120
Test: normalised response (% of control), CellTox Green; higher = less cell death (100 = DMSO, 0 = benzethonium chloride kill control)
Conditions: incubation time: 72 h
OBSERVABLE: normalised response (%)
Numbers only, in %.

Below are worked cases with known answers.
{"COMPOUND": "O=C(/C=C/c1cccc(S(=O)(=O)Nc2ccccc2)c1)NO [Belinostat] (100 nM)", "READOUT_NUMBER": 99.2}
{"COMPOUND": "O=C(Nc1cccnc1)N1CCC(Cc2cccc(Oc3ccc(C(F)(F)F)cn3)c2)CC1 [PF-3845] (100 nM)", "READOUT_NUMBER": 104}
{"COMPOUND": "CNC(=O)c1ccc(N2C(=S)N(c3ccc(C#N)c(C(F)(F)F)c3)C(=O)C2(C)C)cc1F [Enzalutamide] (10000 nM)", "READOUT_NUMBER": 104}
{"COMPOUND": "Nc1cc(C(F)(F)F)c(-c2cc(N3CCOCC3)nc(N3CCOCC3)n2)cn1 [Buparlisib] (10000 nM)", "READOUT_NUMBER": 92.1}
{"COMPOUND": "CNC(=O)c1cccc(-c2ccc3c(N4CCOC[C@@H]4C)nc(N4CCOC[C@@H]4C)nc3n2)c1 [AZD2014] (100 nM)", "READOUT_NUMBER": 101}
{"COMPOUND": "CNC(=O)c1ccc(N2C(=S)N(c3ccc(C#N)c(C(F)(F)F)c3)C(=O)C23CCC3)cc1F [RD162] (1000 nM)", "READOUT_NUMBER": 101}
{"COMPOUND": "C=C1C[C@@H]2[C@H](CC[C@]3(C)C(=O)CC[C@@H]23)[C@@]2(C)C=CC(=O)C=C12 [Exemestane] (10000 nM)", "READOUT_NUMBER": 103}
{"COMPOUND": "CO[C@H]1C[C@@H]2CC[C@@H](C)[C@@](O)(O2)C(=O)C(=O)N2CCCC[C@H]2C(=O)O[C@H]([C@H](C)C[C@@H]2CC[C@@H](OP(C)(C)=O)[C@H](OC)C2)CC(=O)[C@H](C)/C=C(\\C)[C@@H](O)[C@@H](OC)C(=O)[C@H](C)C[C@H](C)/C=C/C=C/C=C/1C [Ridaforolimus] (100 nM)", "READOUT_NUMBER": 106}
{"COMPOUND": "Nc1cc(C(F)(F)F)c(-c2cc(N3CCOCC3)nc(N3CCOCC3)n2)cn1 [Buparlisib] (100 nM)", "READOUT_NUMBER": 96.8}
{"COMPOUND": "CNC(=O)c1ccc(N2C(=S)N(c3ccc(C#N)c(C(F)(F)F)c3)C(=O)C2(C)C)cc1F [Enzalutamide] (1000 nM)", "READOUT_NUMBER": 104}

// each compound listed below needs its normalised response
1. COCC[n+]1c2c(n(Cc3cnccn3)c1C)C(=O)c1ccccc1C2=O [YM155] (1000 nM)
2. Cc1cc(Nc2cc(CN3CCOCC3)c3nc(C)c(Cc4ccc(Cl)cc4F)n3n2)n[nH]1 [Gandotinib] (10000 nM)
3. CCc1c2c(nc3ccc(OC(=O)N4CCC(N5CCCCC5)CC4)cc13)-c1cc3c(c(=O)n1C2)COC(=O)[C@]3(O)CC [Irinotecan] (10000 nM)
4. COCC1(CO)C(=O)C2CCN1CC2 (centres undefined) [Prima-1 Met] (100 nM)

Given back:
1: -14.7; 2: 59.9; 3: 74.3; 4: 102
